- Test system: U251 CNS
- EXPERIMENT_SUMMARY: NCI-60 one-dose screen, 48 h
- STUDY_CONDITIONS: 10 µM unless noted
This is part of a sample that, as a whole, favours compounds with a hit. Of some 83,000 tested, about 20% had one in any assay. Active and inactive are the calls of the source. How the source made its calls: active means growth percent below 10; inactive means the rest.
Please answer using one outcome listed in active, inactive

Observe how each entry below is paired with its result.
MOLECULE: CC/C=C\C[C@H](F)C/C=C1/C(=O)C=C[C@@H]1C/C=C\CCCC(=O)O
CAT: inactive
//
MOLECULE: COc1cc(/C=N/N(C)C)ccc1O
CAT: inactive
//
MOLECULE: Cc1cc(=O)oc2cc(Oc3nc(-c4cccs4)cn4c(-c5cccs5)cnc34)ccc12
CAT: inactive
//
MOLECULE: CC/C(=C(\c1ccccc1)c1ccc(OCCNC)cc1)c1ccccc1
CAT: active
//
MOLECULE: CNC(=O)c1cc(Oc2ccc3nc(NC(=O)Nc4ccc(N5CCC(N(C)C)CC5)cc4)sc3c2)ccn1
CAT: inactive

Lab log entry: `COc1cc(-c2cnc3nonc3n2)c(OC)c2c1OCO2` — outcome as called in the assay?
inactive

Lab log entry: `O=C1c2c[n+](Cc3ccccc3)ccc2-c2nc3ccccc3c3ccnc1c23` — outcome as called in the assay?
active

Lab log entry: `COc1cc(C#N)cc(OC)c1OCCN(CCOc1c(OC)cc(C#N)cc1OC)S(=O)(=O)c1ccc(C)cc1` — outcome as called in the assay?
inactive

Lab log entry: C=C1CC2(OC1=O)C(=O)Nc1ccccc12 (stereo unspecified) — outcome as called in the assay?
inactive

Lab log entry: `COc1cccc(/C=C\C(=O)c2ccccc2)c1` — outcome as called in the assay?
inactive

Lab log entry: `CC(=O)C1=C(O)C=C2Oc3c(C(=O)/C=C/c4ccccc4)c(O)c(C)c(O)c3[C@]2(C)C1=O` — outcome as called in the assay?
active

Lab log entry: `Cc1ccc(-c2nc(/C=N/Nc3cc(C)nc4ccc(Cl)cc34)c(C)o2)cc1` — outcome as called in the assay?
active

Lab log entry: `COc1ccc(CN2C(=O)/C(=C\c3cc(OC)c(OC)c(OC)c3)c3cc(OC)ccc32)cc1` — outcome as called in the assay?
active

Lab log entry: `CN1/C(=C\C=C\C2=[N+](C)c3ccccc3C2(C)C)C(C)(C)c2ccccc21` — outcome as called in the assay?
active
